B1: library; a variant is named by its letters at N, in order (parent)
chain: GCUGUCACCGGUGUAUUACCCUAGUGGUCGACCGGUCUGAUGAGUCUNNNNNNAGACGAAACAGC

# Variants of: B1
# Protocol details: normalized RNA/DNA level with ligand (relative to sTRSVctl = 100) (log10 (% of sTRSVctl)); ligand: hypoxanthine (xanthine aptamer); higher = less ribozyme self-cleavage, higher mRNA level
# Measurement conditions: ligand concentration (+) RNA-Seq: 5 mM, HEK293T, reporter: mCherry (pCS4076), ligand present: yes
Result type: normalized RNA/DNA level with ligand (log10)

INSERT INTO assay_data (variant_identifier, observed) VALUES
  ('AGUCUA', 1.92),
  ('GAUCGA', 1.95),
  ('CCUCGU', 1.98),
  ('UCCCUA', 1.92),
  ('GGGUCU', 1.98),
  ('CCGUCU', 1.97),
  ('CCGCAU', 1.96),
  ('UUAUUC', 1.96),
  ('GGUUCA', 1.92),
  ('CCCCCU', 2.01),
  ('AUCGCU', 1.91),
  ('AAAUAC', 1.89),
  ('UCUUCU', 1.98),
  ('GCUGCU', 1.92),
  ('UUAUAC', 1.91),
  ('CUGCAC', 1.94),
  ('CAAGCA', 1.96),
  ('GCCGGA', 1.95),
  ('GUGAAA', 1.89),
  ('AGACUA', 1.95),
  ('ACCGGA', 1.94),
  ('ACGGGU', 1.79);
